Biological target: hGLP-1R (Homo sapiens)
Sequence (P43220 24-463): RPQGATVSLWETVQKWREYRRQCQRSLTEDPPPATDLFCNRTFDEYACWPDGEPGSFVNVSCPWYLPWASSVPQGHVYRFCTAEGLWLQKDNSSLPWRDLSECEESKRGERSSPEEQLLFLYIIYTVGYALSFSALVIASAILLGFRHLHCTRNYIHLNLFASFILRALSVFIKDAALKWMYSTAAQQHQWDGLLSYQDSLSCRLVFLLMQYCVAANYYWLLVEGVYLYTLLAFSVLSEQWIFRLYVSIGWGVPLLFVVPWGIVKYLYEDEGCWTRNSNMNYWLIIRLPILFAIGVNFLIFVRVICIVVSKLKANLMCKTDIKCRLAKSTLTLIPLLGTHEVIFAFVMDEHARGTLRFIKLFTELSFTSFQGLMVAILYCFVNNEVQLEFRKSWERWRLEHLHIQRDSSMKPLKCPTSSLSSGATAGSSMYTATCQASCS
Assay: Functional cAMP activation in the presence of 0.1% casein (no HSA);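 for Relative cAMP EC50, hGLP-1R: intracellular cAMP rise after 30 min at 37 °C read by HTRF, normalized between buffer only (0%) and maximal control ligand (100%), four-parameter variable-slope fit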
Assay type: cell-based
Conditions: in the presence of 0.1% casein (no HSA); geometric mean; read-out: Relative cAMP EC50, hGLP-1R
Starred links: 1 amine or outer side, 2 acyl side, 3 side chain; linkers in the order of their positions; H or OH if unused. Non-standard residues stand in square brackets, D forms with d. Groups on a side chain read outwards from the residue. No end group written: not given here. *: point of attachment. C20 diacid = O=C(O)CCCCCCCCCCCCCCCCCCC(=O)*; C18 diacid = O=C(O)CCCCCCCCCCCCCCCCC(=O)*; αMePhe(2-F) = C[C@](N)(Cc1ccccc1F)C(=O)O; γGlu = O=C(O)[C@H](CCC(=O)[*:2])N[*:1]; αMe4Pal = C[C@](N)(Cc1ccncc1)C(=O)O; αMeY = C[C@](N)(Cc1ccc(O)cc1)C(=O)O; 4Pal = N[C@@H](Cc1ccncc1)C(=O)O; αMeL = CC(C)C[C@](C)(N)C(=O)O; αMeS = C[C@](N)(CO)C(=O)O; Orn = NCCC[C@H](N)C(=O)O; AEEA = NCCOCCOCC(=O)O; Aib = CC(C)(N)C(=O)O
Overview of recorded EC50 for various substances
Answer format: numeric, nM implied, no suffix.

Here's what some known entries look like.
H-Y[Aib]QGTFTSDFSK[αMeL]LDKK([AEEA-γGlu-C20 diacid])AQ[Aib]AFIEYLLAGGPSSGEPPPGEG-NH2 [Example 31]
2.16
Y[Aib]QGTFTSD[4Pal]SR[αMeL]LDKK([γGlu-γGlu-C18 diacid])AQ[αMe4Pal]AFIE[αMe4Pal]LIEGGPSSGAPPPSGSEE-NH2 [Example 959]
5.06
H-Y[Aib]QGT[αMePhe(2-F)]TSD[4Pal][αMeS]I[αMeL]LD[Orn]K([AEEA-γGlu-C18 diacid])AQ[αMe4Pal]EFI[dE][αMeY]LVEGGPSSGAPPPEGE-NH2 [Example 1158]
0.419
H-Y[Aib]QGTFTSDFSK[αMeL]LDKK([AEEA-γGlu-C20 diacid])AQ[Aib]AFIEYLLEGGPSSGAPPP[γGlu]EG-NH2 [Example 52]
5.18
H-Y[Aib]QGTFTSD[4Pal]SK[αMeL]LDKK([γGlu-γGlu-C18 diacid])AQ[Aib]AFIEYLIE[Aib]GPSSGAPPPSGSEEE-NH2 [Example 906]
2.48

With those in mind, consider the next substance.
Fill in: EC50 of H-Y[Aib]QGTFTSDFSK[αMeL]LDKK([AEEA-γGlu-C18 diacid])AQ[Aib]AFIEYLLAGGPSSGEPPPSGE-NH2 [Example 23] is ___
2.98

---

Biological target: hGIPR (Homo sapiens)
Sequence (P48546 22-466): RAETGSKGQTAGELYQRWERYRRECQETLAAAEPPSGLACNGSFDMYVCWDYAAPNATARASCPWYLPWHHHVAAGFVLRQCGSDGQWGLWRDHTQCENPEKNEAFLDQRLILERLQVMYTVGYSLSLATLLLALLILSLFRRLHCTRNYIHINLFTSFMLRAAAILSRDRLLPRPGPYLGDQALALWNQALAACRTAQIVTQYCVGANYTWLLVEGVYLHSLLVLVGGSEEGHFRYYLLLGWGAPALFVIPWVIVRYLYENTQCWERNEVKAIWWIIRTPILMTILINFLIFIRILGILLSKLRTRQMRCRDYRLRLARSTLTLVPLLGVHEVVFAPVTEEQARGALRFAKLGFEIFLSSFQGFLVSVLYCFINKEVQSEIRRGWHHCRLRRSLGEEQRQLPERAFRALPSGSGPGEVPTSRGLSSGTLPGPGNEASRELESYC
Assay: Functional cAMP activation in the presence of 0.1% casein (no HSA);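 for Relative cAMP EC50, hGIPR: intracellular cAMP rise after 30 min at 37 °C read by HTRF against a standard curve, scaled between buffer alone (0%) and top control ligand concentration (100%), four-parameter fit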
Type: cell-based
Conditions: in the presence of 0.1% casein (no HSA); geometric mean; read-out: Relative cAMP EC50, hGIPR
Starred links: 1 amine or outer side, 2 acyl side, 3 side chain; linkers in the order of their positions; H or OH if unused. Non-standard residues stand in square brackets, D forms with d. Groups on a side chain read outwards from the residue. No end group written: not given here. *: point of attachment. C18 diacid = O=C(O)CCCCCCCCCCCCCCCCC(=O)*; γGlu = O=C(O)[C@H](CCC(=O)[*:2])N[*:1]; NMeY = CN[C@@H](Cc1ccc(O)cc1)C(=O)O; αMe4Pal = C[C@](N)(Cc1ccncc1)C(=O)O; αMeY = C[C@](N)(Cc1ccc(O)cc1)C(=O)O; 4Pal = N[C@@H](Cc1ccncc1)C(=O)O; αMeL = CC(C)C[C@](C)(N)C(=O)O; αMeS = C[C@](N)(CO)C(=O)O; Orn = NCCC[C@H](N)C(=O)O; AEEA = NCCOCCOCC(=O)O; Aib = CC(C)(N)C(=O)O
Overview of recorded pEC50 for various substances
Note on units: pEC50 is unitless, being -log10 of a concentration expressed in mol/L.

Here's what some known entries look like.
H-[NMeY][Aib]QGTFTSD[4Pal][αMeS]Q[αMeL]LD[Orn]K([dE-γGlu-C18 diacid])AQ[αMe4Pal]QFIQ[αMeY]LIE[Aib]GPSSGAPPPSGGGE-NH2 [Example 1134]
10.41
Y[Aib]QGTFTSD[4Pal]SR[αMeL]LDKK([AEEA-γGlu-C18 diacid])AQ[αMe4Pal]AFIEYLIEGGESSGAPPPSGS-NH2 [Example 792]
9.26

Fill in: pEC50 of Y[Aib]QGTFTSD[4Pal]SQ[αMeL]LDKK([dE-γGlu-C18 diacid])AQ[αMe4Pal]AFIEYLIAGGPSSGAPPPSGEEE-NH2 [Example 1088] is ___
9.74
